- assay remarks: Toxicity against brine shrimp
- Assay type: organism-based
- test conditions: artemia, in vivo; read-out: LD50 (the source's name)
quantity kind: LC50

Worked examples follow.
compound	result
CC(C)=CCC/C(C)=C/CC1(CC=C(C)C)C(=O)C(O)=Cc2oc3cc(O)cc(O)c3c(=O)c21 (stereo unspecified) [GARCINIANONE A]	7.7 µM
O=C(c1ccc(O)c(O)c1)c1c(O)cc(O)cc1O [MACLURIN]	43.1 µM

For each of the compounds below, state LC50.
1. COc1ccc2cc3[n+](cc2c1OC)CCc1cc2c(cc1-3)OCO2 [BERBERINE CHLORIDE]
2. O=C(c1cccc(O)c1)c1c(O)cc(O)cc1O
3. COc1cc(O)cc(O)c1C(=O)c1ccc(O)c(O)c1
4. CC(C)=CCC/C(C)=C\CC1(CC=C(C)C)C(=O)C(O)=Cc2oc3cc(O)cc(O)c3c(=O)c21 (stereo unspecified) [GARCINIANONE B]

Output:
1: 67 µM; 2: > 100 µM; 3: > 100 µM; 4: 25.8 µM
